Source: a melting point compilation (Tetko et al.; mined from patent text by program, amines drawn as free bases though some values may be those of a salt)

property-measured: melting point

Below: 8 compounds and their reported melting point.
{"compound": "O[C@H]1CC[C@H](Nc2nccc(-n3ncc4c(Br)cccc43)n2)CC1", "melting point": "200 to 202 °C"}
{"compound": "CC(=O)NC(C(=O)NCc1ccncc1)c1ccco1 (stereo not drawn)", "melting point": "168 to 170 °C"}
{"compound": "CC(=O)NC[C@H]1CN(c2ccc(C3C=CS(=O)(=O)CC3)cc2)C(=O)O1 (stereo partly drawn)", "melting point": "187 to 189 °C"}
{"compound": "CCCCCCCCOC1(OC(=O)C2CCCO2)C=CC(c2ccccc2)=CC1 (stereo not drawn)", "melting point": "119 °C"}
{"compound": "CC1(CCl)C(C(=O)OCC(Cl)(Cl)Cl)N2C(=O)C(NC(=O)Cc3ccccc3)C2S1=O (stereo not drawn)", "melting point": "130 to 131 °C"}
{"compound": "CCC(C)(C)NC(=O)C(=O)C(C)(C)C", "melting point": "36 °C"}
{"compound": "CCOP(=O)(/C=C/C=C/c1cn(-c2ccccc2)nc1OCc1ccc(OCc2nc(-c3ccco3)oc2C)c(OC)c1)OCC", "melting point": "143 to 144 °C"}
{"compound": "CC(=O)c1cc(Cl)c(N=C=O)c(Cl)c1", "melting point": "138 to 140 °C"}

Sample O=C(Oc1ccccc1)c1ccc(NS(=O)(=O)c2ccccc2)cc1Cl — what was its melting point? 130 to 140 °C

Can you share its melting point? I mean this compound: COc1ccc(C(=C/C=C/C(=O)Nc2cccc3cnccc23)c2ccc(OC)cc2)cc1 197 to 199 °C

Sample COCc1cc(O[C@@H]2c3ccccc3C[C@H]2O)c2nc(C)c(C)n2c1 (relative stereo) — what was its melting point? 142 to 143 °C

Which melting point reading was recorded for the compound O=c1oc(/C=C/c2ccccc2)ns1 ? 105 to 106 °C

Form field: reported melting point of C#CCNC(=NCCSCc1ncccc1Cl)NC#N 115 to 116 °C

----------
property-measured: melting point

Examples with answers:
{"molecule": "CCOC(=O)c1ccc(-c2ncc(C#Cc3ccccc3)s2)s1", "melting point": "137 to 141 °C"}
{"molecule": "Cc1cc(CO)oc1CN(C)C", "melting point": "104 to 106 °C"}
{"molecule": "Cc1ccc2c(c1)C(O)=C(C(=O)Nc1cncc(Cl)n1)N(C)S2(=O)=O", "melting point": "296 to 298 °C"}
{"molecule": "COC1(c2cc(O)cc(F)c2)CCOC1 (stereo unspecified)", "melting point": "136 to 137 °C"}

Looking for the measured melting point of CC(=O)NCCCC(=NNC(N)=S)c1ccccc1 , can you help? 74 to 83 °C

melting point for Cn1nc(-c2c(Cl)cccc2Cl)nc1-c1cccnc1Cl ? 133 to 136 °C

----------
property-measured: melting point

Below are worked cases with known answers.
{"substance-smiles": "CCCCCS(=O)(=O)NC(=O)CCc1ccc(OCCCOCCOC)cc1Oc1ncc(C(F)(F)F)cc1Cl", "result": "95 to 95.8 °C"}
{"substance-smiles": "Nc1ccc(-c2noc(-c3cnc4ccc(-c5ccc(C(F)(F)F)cc5)cn34)n2)cn1", "result": "258 °C"}

Now look at this entry.
For the compound Cc1noc(C)c1Cn1cc(NC(=O)Cc2ccccc2)cn1 , what melting point is on record? 106 to 108 °C
